- assayed target: Tyrosine-protein phosphatase non-receptor type 5 (Homo sapiens, UniProt P54829)
- Sequence (P54829 whole entry): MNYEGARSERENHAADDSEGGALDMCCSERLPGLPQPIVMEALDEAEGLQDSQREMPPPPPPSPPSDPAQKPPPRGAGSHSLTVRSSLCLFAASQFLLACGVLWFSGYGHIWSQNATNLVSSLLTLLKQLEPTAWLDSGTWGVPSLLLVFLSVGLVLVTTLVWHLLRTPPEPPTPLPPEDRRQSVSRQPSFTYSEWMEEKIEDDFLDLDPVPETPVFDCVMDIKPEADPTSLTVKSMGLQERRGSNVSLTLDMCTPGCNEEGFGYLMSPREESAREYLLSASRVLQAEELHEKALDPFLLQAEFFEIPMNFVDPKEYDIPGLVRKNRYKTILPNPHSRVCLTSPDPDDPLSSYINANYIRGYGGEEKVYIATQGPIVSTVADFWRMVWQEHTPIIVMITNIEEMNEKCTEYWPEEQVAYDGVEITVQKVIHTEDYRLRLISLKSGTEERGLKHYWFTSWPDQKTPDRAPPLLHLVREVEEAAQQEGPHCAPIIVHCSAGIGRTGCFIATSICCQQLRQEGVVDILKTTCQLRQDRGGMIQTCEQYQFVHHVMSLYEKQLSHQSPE
pIC50: −log10 of the molar value.

structure string: COc1ccc(Cl)cc1S(=O)(=O)Nc1ccc(-c2nc3cc(NS(=O)(=O)c4ccc(Cl)s4)ccc3o2)cc1
pIC50: 4.96
//
structure string: O=S(=O)(Nc1ccc2oc(-c3ccccc3)nc2c1)c1cccc(O)c1
pIC50: 4.14
//
structure string: O=S(=O)(Nc1ccc(-c2nc3ccccc3o2)cc1)c1ccc(O)cc1
pIC50: 4.09
//
structure string: O=S(=O)(Nc1ccc(-c2nc3ccccc3o2)cc1)c1ccccc1Cl
pIC50: 4.29
//
structure string: COc1ccccc1S(=O)(=O)Nc1ccc(-c2nc3ccccc3o2)cc1
pIC50: 4.36
//
structure string: Cc1ccccc1S(=O)(=O)Nc1ccc(-c2nc3ccccc3o2)cc1
pIC50: 4.49
//
structure string: O=S(=O)(Cc1ccccc1)Nc1ccc(-c2nc3cc(NS(=O)(=O)Cc4ccccc4)ccc3o2)cc1
pIC50: 4.60
//
structure string: O=S(=O)(Nc1ccc(-c2nc3cc(NS(=O)(=O)c4ccccc4Br)ccc3o2)cc1)c1ccccc1Br
pIC50: 4.51
//
structure string: O=S(=O)(Nc1ccc2oc(-c3ccccc3)nc2c1)c1ccccc1F
pIC50: 4.36
//
structure string: O=S(=O)(Nc1ccc2oc(-c3ccccc3)nc2c1)c1ccccc1C(F)(F)F
pIC50: 4.43

----------
Listing of recorded pIC50 by entry.
- assayed target: Tyrosine-protein phosphatase non-receptor type 2 (Homo sapiens)
- Sequence (P17706 whole entry): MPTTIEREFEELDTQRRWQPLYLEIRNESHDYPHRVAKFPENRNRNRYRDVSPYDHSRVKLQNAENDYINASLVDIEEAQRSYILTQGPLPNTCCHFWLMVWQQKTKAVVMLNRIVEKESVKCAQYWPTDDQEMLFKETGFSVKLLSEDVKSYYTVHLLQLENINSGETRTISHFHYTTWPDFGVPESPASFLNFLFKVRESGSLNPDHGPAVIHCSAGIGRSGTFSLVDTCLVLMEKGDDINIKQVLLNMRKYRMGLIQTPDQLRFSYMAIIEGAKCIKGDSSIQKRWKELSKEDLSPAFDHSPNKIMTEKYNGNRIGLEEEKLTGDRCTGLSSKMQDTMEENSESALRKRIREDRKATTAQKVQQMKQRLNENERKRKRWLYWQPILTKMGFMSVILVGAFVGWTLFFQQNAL
pIC50: −log10 of the molar value.
measured property: pIC50

structure string: Cc1cccc(S(=O)(=O)Nc2ccc(-c3nc4ccccc4o3)cc2)c1
assayed target: Tyrosine-protein phosphatase non-receptor type 2 (Homo sapiens)
reported relation: =
observed result: 4.40

structure string: COC(=O)c1ccc(S(=O)(=O)Nc2ccc(-c3nc4cc(NS(=O)(=O)c5ccc(C(=O)OC)cc5)ccc4o3)cc2)cc1
assayed target: Tyrosine-protein phosphatase non-receptor type 2 (Homo sapiens)
reported relation: =
observed result: 4.77

structure string: O=[N+]([O-])c1ccccc1S(=O)(=O)Nc1ccc(-c2nc3cc(NS(=O)(=O)c4ccccc4[N+](=O)[O-])ccc3o2)cc1
assayed target: Tyrosine-protein phosphatase non-receptor type 2 (Homo sapiens)
reported relation: =
observed result: 4.55

structure string: O=C(O)c1cccc(S(=O)(=O)Nc2ccc(-c3nc4cc(NS(=O)(=O)c5cccc(C(=O)O)c5)ccc4o3)cc2)c1
assayed target: Tyrosine-protein phosphatase non-receptor type 2 (Homo sapiens)
reported relation: <
observed result: 4.00

structure string: COc1ccccc1S(=O)(=O)Nc1ccc(-c2nc3cc(NS(=O)(=O)c4ccccc4OC)ccc3o2)cc1
assayed target: Tyrosine-protein phosphatase non-receptor type 2 (Homo sapiens)
reported relation: =
observed result: 4.68

structure string: O=S(=O)(Nc1ccc(-c2nc3cc(NS(=O)(=O)c4cccc5ccccc45)ccc3o2)cc1)c1cccc2ccccc12
assayed target: Tyrosine-protein phosphatase non-receptor type 2 (Homo sapiens)
reported relation: =
observed result: 4.60

structure string: O=S(=O)(Nc1ccc(-c2nc3cc(NS(=O)(=O)c4ccc(Cl)s4)ccc3o2)cc1)c1ccc(Cl)s1
assayed target: Tyrosine-protein phosphatase non-receptor type 2 (Homo sapiens)
reported relation: =
observed result: 4.60

structure string: O=S(=O)(Nc1ccc(-c2nc3cc(NS(=O)(=O)c4cccc(Br)c4)ccc3o2)cc1)c1cccc(Br)c1
assayed target: Tyrosine-protein phosphatase non-receptor type 2 (Homo sapiens)
reported relation: =
observed result: 4.96

structure string: O=S(=O)(Nc1ccc2oc(-c3ccc(NS(=O)(=O)c4cccc5nonc45)cc3)nc2c1)c1ccc(Cl)s1
assayed target: Tyrosine-protein phosphatase non-receptor type 2 (Homo sapiens)
reported relation: =
observed result: 4.55

structure string: O=S(=O)(Nc1ccc(-c2nc3cc(NS(=O)(=O)c4ccccc4Cl)ccc3o2)cc1)c1ccccc1Cl
assayed target: Tyrosine-protein phosphatase non-receptor type 2 (Homo sapiens)
reported relation: =
observed result: 4.66

structure string: O=S(=O)(Nc1ccc(-c2nc3cc(NS(=O)(=O)c4ccccc4Br)ccc3o2)cc1)c1ccccc1Br
assayed target: Tyrosine-protein phosphatase non-receptor type 2 (Homo sapiens)
reported relation: =
observed result: 4.55

structure string: O=S(=O)(Nc1ccc2oc(-c3ccccc3)nc2c1)c1ccc(Cl)c(C(F)(F)F)c1
assayed target: Tyrosine-protein phosphatase non-receptor type 2 (Homo sapiens)
reported relation: =
observed result: 4.47

structure string: CS(=O)(=O)Nc1ccc(-c2nc3ccccc3o2)cc1
assayed target: Tyrosine-protein phosphatase non-receptor type 2 (Homo sapiens)
reported relation: <
observed result: 4.00

structure string: O=S(=O)(Nc1ccc(-c2nc3ccccc3o2)cc1)c1cccc(C(F)(F)F)c1
assayed target: Tyrosine-protein phosphatase non-receptor type 2 (Homo sapiens)
reported relation: =
observed result: 4.32

structure string: CCc1ccc(S(=O)(=O)Nc2ccc3oc(-c4ccc(NS(=O)(=O)c5ccc(Cl)s5)cc4)nc3c2)cc1
assayed target: Tyrosine-protein phosphatase non-receptor type 2 (Homo sapiens)
reported relation: =
observed result: 4.82

structure string: Cc1ccc(S(=O)(=O)Nc2ccc(-c3nc4ccc(NS(=O)(=O)c5ccc(C)cc5)cc4[nH]3)cc2)cc1
assayed target: Tyrosine-protein phosphatase non-receptor type 2 (Homo sapiens)
reported relation: =
observed result: 4.66

structure string: O=S(=O)(Nc1ccc(-c2nc3cc(NS(=O)(=O)c4ccc(F)cc4)ccc3o2)cc1)c1ccc(F)cc1
assayed target: Tyrosine-protein phosphatase non-receptor type 2 (Homo sapiens)
reported relation: =
observed result: 4.55

structure string: COc1ccc(S(=O)(=O)Nc2ccc(-c3nc4ccccc4o3)cc2)cc1
assayed target: Tyrosine-protein phosphatase non-receptor type 2 (Homo sapiens)
reported relation: =
observed result: 4.28

structure string: Cc1ccccc1S(=O)(=O)Nc1ccc(-c2nc3cc(NS(=O)(=O)c4ccccc4C)ccc3o2)cc1
assayed target: Tyrosine-protein phosphatase non-receptor type 2 (Homo sapiens)
reported relation: =
observed result: 4.74

structure string: COc1ccc(S(=O)(=O)Nc2ccc(-c3nc4cc(NS(=O)(=O)c5ccc(OC)cc5)ccc4o3)cc2)cc1
assayed target: Tyrosine-protein phosphatase non-receptor type 2 (Homo sapiens)
reported relation: =
observed result: 4.80

structure string: O=S(=O)(Nc1ccc(-c2nc3cc(NS(=O)(=O)c4ccc(Cl)s4)ccc3o2)cc1)c1ccc(Cl)c(C(F)(F)F)c1
assayed target: Tyrosine-protein phosphatase non-receptor type 2 (Homo sapiens)
reported relation: =
observed result: 4.89

----------
- assay protocol: Cytotoxicity against human THLE3 cells assessed as reduction in cell viability after 48 hrs by Alamar blue assay
- Assay type: cell-based
measured property: CC50 at 48 h (µM)

structure string: O=S(=O)(Nc1ccc2oc(-c3ccccc3)nc2c1)c1ccccc1Cl
measured property: CC50 at 48 h
observed result: 43

structure string: COc1ccc(Cl)cc1S(=O)(=O)Nc1ccc(-c2nc3ccccc3o2)cc1
measured property: CC50 at 48 h
observed result: 42

structure string: O=S(=O)(Nc1ccc(-c2nc3ccccc3o2)cc1)c1ccccc1
measured property: CC50 at 48 h
observed result: 96

structure string: O=S(=O)(Nc1ccc2oc(-c3ccccc3)nc2c1)c1ccc(F)c(C(F)(F)F)c1
measured property: CC50 at 48 h
observed result: 55

structure string: O=S(=O)(Nc1ccc2oc(-c3ccccc3)nc2c1)c1ccc(Cl)c(C(F)(F)F)c1
measured property: CC50 at 48 h
observed result: 47

----------
- assayed target: Phosphotyrosine protein phosphatase (Mycobacterium tuberculosis, UniProt A0A045ISB3)
- Sequence (A0A045ISB3 whole entry): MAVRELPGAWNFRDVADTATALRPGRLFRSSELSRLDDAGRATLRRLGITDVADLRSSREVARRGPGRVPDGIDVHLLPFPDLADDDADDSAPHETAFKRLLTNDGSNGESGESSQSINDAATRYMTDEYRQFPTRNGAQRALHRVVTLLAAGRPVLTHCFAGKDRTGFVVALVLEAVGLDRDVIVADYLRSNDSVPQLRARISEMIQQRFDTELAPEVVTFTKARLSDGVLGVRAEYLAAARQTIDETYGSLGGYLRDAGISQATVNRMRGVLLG
pIC50: −log10 of the molar value.
Examples of compounds with documented pIC50 follow.
measured property: pIC50

structure string: O=S(=O)(Nc1ccc(-c2nc3cc(NS(=O)(=O)c4ccc(Cl)s4)ccc3o2)cc1)c1cccs1
reported relation: =
observed result: 5.47
//
structure string: O=S(=O)(Nc1ccc2oc(-c3ccccc3)nc2c1)c1ccccc1Cl
reported relation: =
observed result: 4.30
//
structure string: COc1ccccc1S(=O)(=O)Nc1ccc(-c2nc3ccccc3o2)cc1
reported relation: =
observed result: 4.23
//
structure string: O=S(=O)(Nc1ccc(-c2nc3cc(NS(=O)(=O)c4cccc5nsnc45)ccc3o2)cc1)c1cccc2nsnc12
reported relation: =
observed result: 5.15
//
structure string: CS(=O)(=O)Nc1ccc(-c2nc3cc(NS(C)(=O)=O)ccc3o2)cc1
reported relation: <
observed result: 4.00
//
structure string: Cc1cccc(S(=O)(=O)Nc2ccc(-c3nc4ccccc4o3)cc2)c1
reported relation: =
observed result: 4.40
//
structure string: O=S(=O)(Nc1ccc(-c2nc3ccccc3o2)cc1)c1ccc(C(F)(F)F)cc1
reported relation: =
observed result: 4.28
//
structure string: O=C(O)c1ccc(S(=O)(=O)Nc2ccc(-c3nc4cc(NS(=O)(=O)c5ccc(C(=O)O)cc5)ccc4o3)cc2)cc1
reported relation: =
observed result: 4.92
//
structure string: O=S(=O)(Nc1ccc2oc(-c3ccccc3)nc2c1)c1ccc(Cl)s1
reported relation: =
observed result: 4.27
